B1: mRNA-splicing (parent)
chain: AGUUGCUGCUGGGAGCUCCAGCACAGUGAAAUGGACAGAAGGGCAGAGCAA

# Variants of: B1
# Procedure Summary: exon inclusion enrichment index; higher = more inclusion; WT1 exon 5 minigene, HEK293
// values below are reported exon inclusion enrichment index
Reported Metric: exon inclusion enrichment index

[[record]]
variant_designation = "G5C C6G U7C C9U U10G"
reported_metric = "exon inclusion enrichment index"
recorded_measurement = 1.02

[[record]]
variant_designation = "G5C C6A U7C G8A G11A"
reported_metric = "exon inclusion enrichment index"
recorded_measurement = 0.126

[[record]]
variant_designation = "G12C G13A"
reported_metric = "exon inclusion enrichment index"
recorded_measurement = 1.1

[[record]]
variant_designation = "C6A U7C C9G U10A"
reported_metric = "exon inclusion enrichment index"
recorded_measurement = 1.39

[[record]]
variant_designation = "G5C C6U U7C G8A C9U U10C"
reported_metric = "exon inclusion enrichment index"
recorded_measurement = 1.99

[[record]]
variant_designation = "G5A U7C G8A U10C G38C"
reported_metric = "exon inclusion enrichment index"
recorded_measurement = 1.83

[[record]]
variant_designation = "G5C C6A U7C G8A U10A A29C A30U"
reported_metric = "exon inclusion enrichment index"
recorded_measurement = 0.0384

[[record]]
variant_designation = "G5C C6A U7C G8A U10A U17G C18G"
reported_metric = "exon inclusion enrichment index"
recorded_measurement = 0.159

[[record]]
variant_designation = "G5A C6U U7A G8U C9A C36U"
reported_metric = "exon inclusion enrichment index"
recorded_measurement = 0.00462

[[record]]
variant_designation = "G5U G8U C9U C36A A37U"
reported_metric = "exon inclusion enrichment index"
recorded_measurement = 0.0263

[[record]]
variant_designation = "G5A U7C G8A U10C C22A"
reported_metric = "exon inclusion enrichment index"
recorded_measurement = 2.32

[[record]]
variant_designation = "C6A U7A C9A U10A A39G"
reported_metric = "exon inclusion enrichment index"
recorded_measurement = 0.404

[[record]]
variant_designation = "G5A C6U U7A C9A"
reported_metric = "exon inclusion enrichment index"
recorded_measurement = 0.0715

[[record]]
variant_designation = "A30U A31C"
reported_metric = "exon inclusion enrichment index"
recorded_measurement = 0.202

[[record]]
variant_designation = "G5A C6G U7G C9A G33U G34C"
reported_metric = "exon inclusion enrichment index"
recorded_measurement = 0.00131

[[record]]
variant_designation = "G5C C6A U7C G8A U10A G43C C44G"
reported_metric = "exon inclusion enrichment index"
recorded_measurement = 1.22

[[record]]
variant_designation = "G5C C6U G8C C9U U10C U32G G33U"
reported_metric = "exon inclusion enrichment index"
recorded_measurement = 0.774

[[record]]
variant_designation = "U7C G8U"
reported_metric = "exon inclusion enrichment index"
recorded_measurement = 1.05

[[record]]
variant_designation = "G5U G8U C9U G28C"
reported_metric = "exon inclusion enrichment index"
recorded_measurement = 0.0778

[[record]]
variant_designation = "C6A U7C C9A U10C A39G A40G"
reported_metric = "exon inclusion enrichment index"
recorded_measurement = 0.569

[[record]]
variant_designation = "C6A U7A C9A U10A C18U"
reported_metric = "exon inclusion enrichment index"
recorded_measurement = 0.387

[[record]]
variant_designation = "G5A U7C G8A U10C C22A A23C"
reported_metric = "exon inclusion enrichment index"
recorded_measurement = 3.53

[[record]]
variant_designation = "G5A C6U U7A G8U C9A G42U G43U"
reported_metric = "exon inclusion enrichment index"
recorded_measurement = 0.23

[[record]]
variant_designation = "C6A U7C C9A U10C G42A G43A"
reported_metric = "exon inclusion enrichment index"
recorded_measurement = 4.69

[[record]]
variant_designation = "G2U U3G G5C C6G U7C U10C"
reported_metric = "exon inclusion enrichment index"
recorded_measurement = 5.1

[[record]]
variant_designation = "G5A C6G U7G C9A A31G U32A"
reported_metric = "exon inclusion enrichment index"
recorded_measurement = 0.0281

[[record]]
variant_designation = "C16U U17C"
reported_metric = "exon inclusion enrichment index"
recorded_measurement = 0.038

[[record]]
variant_designation = "U3A U4G G5U G8U C9U"
reported_metric = "exon inclusion enrichment index"
recorded_measurement = 0.143

[[record]]
variant_designation = "G5C C6U G8C C9U U10C G33A G34C"
reported_metric = "exon inclusion enrichment index"
recorded_measurement = 0.284

[[record]]
variant_designation = "G5A C6U C9A"
reported_metric = "exon inclusion enrichment index"
recorded_measurement = 0.306

[[record]]
variant_designation = "G5C C6A U7C G8A U10A G12A G13U"
reported_metric = "exon inclusion enrichment index"
recorded_measurement = 0.016

[[record]]
variant_designation = "C6A U7A C9A U10A G38A"
reported_metric = "exon inclusion enrichment index"
recorded_measurement = 0.314

[[record]]
variant_designation = "C16A"
reported_metric = "exon inclusion enrichment index"
recorded_measurement = 0.0656

[[record]]
variant_designation = "G5C C6G U7C U10C C24U A25U"
reported_metric = "exon inclusion enrichment index"
recorded_measurement = 3.01

[[record]]
variant_designation = "G5C C6G U7C U10C A45G G46U"
reported_metric = "exon inclusion enrichment index"
recorded_measurement = 3.14

[[record]]
variant_designation = "C6A U7A C9A U10A G43U C44U"
reported_metric = "exon inclusion enrichment index"
recorded_measurement = 0.125

[[record]]
variant_designation = "C6A U7C C9A G11C"
reported_metric = "exon inclusion enrichment index"
recorded_measurement = 2.88

[[record]]
variant_designation = "G5A C6U U7A G8U C9A A31U"
reported_metric = "exon inclusion enrichment index"
recorded_measurement = 0.0565

[[record]]
variant_designation = "U3A U4C C6A U7C C9A U10C"
reported_metric = "exon inclusion enrichment index"
recorded_measurement = 4.11

